Taken from ChEMBL document CHEMBL3045200.

test system: Staphylococcus aureus; assay: Antibacterial activity against Staphylococcus aureus after 24 hr by broth serial microdilution method; assay type: functional
Recorded Endpoint: MIC (µM)
Give the value, in units of µM, as a plain number.

Query: Record request: MIC value, item Nc1nc(NCC(=O)NC(=S)Nc2nc3ccc(Cl)cc3s2)c2ncn(S(=O)(=O)c3ccccc3)c2n1
Reply: 520

Query: Try this compound next: Nc1nc(NCC(=O)NC(=S)Nc2nc3c([N+](=O)[O-])cccc3s2)c2ncn(S(=O)(=O)c3ccccc3)c2n1
Reply: 510

Query: Try this compound next: Cc1ccc2nc(NC(=S)NC(=O)CNc3nc(N)nc4c3ncn4S(=O)(=O)c3ccccc3)sc2c1
Reply: 540

Query: Try this compound next: O=C(O)c1cn(C2CC2)c2cc(N3CCNCC3)c(F)cc2c1=O [CIPROFLOXACIN]
Reply: 190

Query: Try this compound next: Nc1nc(NCC(=O)NC(=S)Nc2nc3ccccc3s2)c2ncn(S(=O)(=O)c3ccccc3)c2n1
Reply: 560

Query: Try this compound next: COc1ccc2sc(NC(=S)NC(=O)CNc3nc(N)nc4c3ncn4S(=O)(=O)c3ccccc3)nc2c1
Reply: 530

Query: Try this compound next: COc1ccc2nc(NC(=S)NC(=O)CNc3nc(N)nc4c3ncn4S(=O)(=O)c3ccccc3)sc2c1
Reply: 350

Query: Try this compound next: Nc1nc(NCC(=O)NC(=S)Nc2nc3c(Cl)cccc3s2)c2ncn(S(=O)(=O)c3ccccc3)c2n1
Reply: 350

Query: Try this compound next: Nc1nc(NCC(=O)NC(=S)Nc2nc3ccc(F)cc3s2)c2ncn(S(=O)(=O)c3ccccc3)c2n1
Reply: 530

Query: Try this compound next: Nc1nc(NCC(=O)NC(=S)Nc2nc3ccc([N+](=O)[O-])cc3s2)c2ncn(S(=O)(=O)c3ccccc3)c2n1
Reply: 510

Query: Try this compound next: Nc1nc(NCC(=O)NC(=S)Nc2nc3cc([N+](=O)[O-])ccc3s2)c2ncn(S(=O)(=O)c3ccccc3)c2n1
Reply: 510

Query: Try this compound next: CC1(C)S[C@@H]2[C@H](NC(=O)[C@H](N)c3ccccc3)C(=O)N2[C@H]1C(=O)O [AMPICILLIN]
Reply: 130

---

Field: MIC. Provide a value for each of the compounds that follow.
test system: Aspergillus niger; test: Antifungal activity against Aspergillus niger by broth serial microdilution method; type: functional
Give the value, in units of µM, as a plain number.

Query: Record request: MIC value, item Nc1nc(NCC(=O)NC(=S)Nc2nc3c([N+](=O)[O-])cccc3s2)c2ncn(S(=O)(=O)c3ccccc3)c2n1
Reply: 510

Query: Try this compound next: Nc1nc(NCC(=O)NC(=S)Nc2nc3ccccc3s2)c2ncn(S(=O)(=O)c3ccccc3)c2n1
Reply: 550

Query: Try this compound next: OC(Cn1cncn1)(Cn1cncn1)c1ccc(F)cc1F
Reply: 350

Query: Try this compound next: COc1ccc2sc(NC(=S)NC(=O)CNc3nc(N)nc4c3ncn4S(=O)(=O)c3ccccc3)nc2c1
Reply: 350

---

test system: Aspergillus niger; test: Antifungal activity against Aspergillus niger by broth serial microdilution method; format: functional
Rule: measured MIC below 500 µM gets true; anything equal to or greater than 500 µM gets false.

Query: Given the entry Nc1nc(NCC(=O)NC(=S)Nc2nc3c(Cl)cccc3s2)c2ncn(S(=O)(=O)c3ccccc3)c2n1 , would its reported MIC be below 500 µM?
Reply: true

Query: Try this compound next: Cc1ccc2nc(NC(=S)NC(=O)CNc3nc(N)nc4c3ncn4S(=O)(=O)c3ccccc3)sc2c1
Reply: false

Query: Try this compound next: Nc1nc(NCC(=O)NC(=S)Nc2nc3ccc(F)cc3s2)c2ncn(S(=O)(=O)c3ccccc3)c2n1
Reply: true

Query: Try this compound next: Nc1nc(NCC(=O)NC(=S)Nc2nc3ccc(Cl)cc3s2)c2ncn(S(=O)(=O)c3ccccc3)c2n1
Reply: true

Query: Try this compound next: COc1ccc2nc(NC(=S)NC(=O)CNc3nc(N)nc4c3ncn4S(=O)(=O)c3ccccc3)sc2c1
Reply: true
